target: REFACTO® (recombinant factor VIII-like polypeptide consisting of amino acids 1-743 and 1638 through 2332 of human factor VIII) (human) (UniProt P00451); assay: phage ELISA, phage isolate on factor VIII target, anti-M13-HRP
Sequence (P00451 20-762, chain 1 of 2): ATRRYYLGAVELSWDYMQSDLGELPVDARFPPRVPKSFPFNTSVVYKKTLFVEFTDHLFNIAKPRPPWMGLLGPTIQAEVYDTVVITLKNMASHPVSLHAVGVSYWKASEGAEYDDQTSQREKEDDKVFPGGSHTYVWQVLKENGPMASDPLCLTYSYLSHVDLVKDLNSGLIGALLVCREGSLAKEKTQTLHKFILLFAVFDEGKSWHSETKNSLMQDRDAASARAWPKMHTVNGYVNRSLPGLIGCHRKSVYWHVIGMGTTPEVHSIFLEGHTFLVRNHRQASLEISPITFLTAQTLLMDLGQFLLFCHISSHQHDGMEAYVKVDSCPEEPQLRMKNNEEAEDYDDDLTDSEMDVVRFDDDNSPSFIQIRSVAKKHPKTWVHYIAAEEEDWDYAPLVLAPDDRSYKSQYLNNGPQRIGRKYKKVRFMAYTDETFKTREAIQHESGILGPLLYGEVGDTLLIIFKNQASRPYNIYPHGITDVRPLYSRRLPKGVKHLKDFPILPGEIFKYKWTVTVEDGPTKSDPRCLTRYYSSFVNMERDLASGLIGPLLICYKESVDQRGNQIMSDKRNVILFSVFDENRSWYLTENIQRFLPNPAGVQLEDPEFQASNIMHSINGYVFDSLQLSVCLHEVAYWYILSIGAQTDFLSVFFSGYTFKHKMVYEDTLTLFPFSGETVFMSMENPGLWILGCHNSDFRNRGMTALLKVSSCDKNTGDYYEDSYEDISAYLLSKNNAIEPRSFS
Sequence (P00451 1657-2351, chain 2 of 2): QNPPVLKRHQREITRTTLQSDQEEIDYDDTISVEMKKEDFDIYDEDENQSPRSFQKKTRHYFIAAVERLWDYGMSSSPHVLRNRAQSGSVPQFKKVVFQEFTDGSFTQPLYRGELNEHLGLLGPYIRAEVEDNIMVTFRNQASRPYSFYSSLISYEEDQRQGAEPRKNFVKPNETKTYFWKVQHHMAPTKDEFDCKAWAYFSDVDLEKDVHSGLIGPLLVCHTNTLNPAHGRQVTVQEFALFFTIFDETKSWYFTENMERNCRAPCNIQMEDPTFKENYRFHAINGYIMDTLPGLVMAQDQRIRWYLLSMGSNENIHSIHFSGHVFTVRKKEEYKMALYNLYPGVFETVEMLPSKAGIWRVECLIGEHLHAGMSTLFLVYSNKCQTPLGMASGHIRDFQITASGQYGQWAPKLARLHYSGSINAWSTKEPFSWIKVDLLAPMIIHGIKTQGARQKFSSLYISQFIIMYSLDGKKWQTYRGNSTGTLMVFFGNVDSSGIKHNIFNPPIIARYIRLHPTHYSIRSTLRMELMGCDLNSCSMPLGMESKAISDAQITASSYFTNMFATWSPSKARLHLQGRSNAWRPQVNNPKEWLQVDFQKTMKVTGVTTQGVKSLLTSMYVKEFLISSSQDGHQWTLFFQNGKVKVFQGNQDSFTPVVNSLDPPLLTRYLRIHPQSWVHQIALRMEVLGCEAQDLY
ATTRIBUTE MEASURED: ELISA signal (OD630)

1) HPCGSWFRPCFH [TN8 isolate 02 (SEQ ID NO: 14)]; 0.7
2) FCWVFPFHHCF [TN9 isolate 06 (SEQ ID NO: 30)]; 0.3
3) RLCSWISPCSA [TN7 isolate D04]; 0.3
4) FCHVFHFSHCD [TN9 isolate 01 (SEQ ID NO: 24)]; 0.2
5) HLCFAWFRPCDA [TN8 isolate 12 (SEQ ID NO: 17)]; 0.4
6) RLCSWVSPCSA [TN7 isolate C5/G10]; 0.5
7) HPCGSWLHPCAA [TN8 isolate 04 (SEQ ID NO: 12)]; 0.3
8) FCWVFNFSHCS [TN9 isolate 03 (SEQ ID NO: 26)]; 1.1
9) FCHVFNFVHCS [TN9 isolate 01 (SEQ ID NO: 31)]; 0.5
10) FCWVFPFNHCD [TN9 isolate 02 (SEQ ID NO: 27)]; 0.4
11) HPCGAWFNPCPR [TN8 isolate 01 (SEQ ID NO: 19)]; 0.2
12) RGCGSWLRPCLD [TN8 isolate 05 (SEQ ID NO: 11)]; 0.2
13) HPCGSWFNPCAH [TN8 isolate 02 (SEQ ID NO: 13)]; 0.3
14) HLCGAWFRPCDA [TN8 isolate 02 (SEQ ID NO: 16)]; 0.4
15) FCHVFPFLHCD [TN9 isolate 11 (SEQ ID NO: 32)]; 0.2
16) FCWVFPFNHCS [TN9 isolate 12 (SEQ ID NO: 28)]; 1
